All values here come from ChEMBL document CHEMBL5137035.

Form: system (Dihydroorotate dehydrogenase (quinone), mitochondrial (Homo sapiens)), quantity (IC50), values below.
assay endpoint: IC50 (nM)

Example entries begin here.
INSERT INTO results (molecule, numeric_value) VALUES
  ('CCC(C)Oc1cc(NC(=O)/C(C#N)=C(/C)O)c(F)cc1-c1ccnc(F)c1 (centres undefined)', 20.3),
  ('COc1cccc(-c2cc(F)c(NC(=O)/C(C#N)=C(/C)O)cc2OC)c1', 52.1);

(A) CCC(C)Oc1cc(NC(=O)/C(C#N)=C(/C)O)c(F)cc1-c1cc2ccccc2o1 (centres undefined)
(B) CCC(C)Oc1cc(NC(=O)/C(C#N)=C(/C)O)c(F)cc1-c1cccc(C(F)(F)F)c1 (centres undefined)
**Query** Name the one with the greater IC50 value, either A or B as given. In your reply, give the label of the chosen option.
**Result** A
